The reported numbers originate from ChEMBL document CHEMBL4765495.

System: Staphylococcus aureus
Assay: Antibacterial activity against methicillin resistant Staphylococcus aureus assessed as inhibition of bacterial growth measured after 18 hrs in presence of 10% human serum by resazurin dye based broth dilution assay
Format: functional
measured_attribute: MIC (µg/mL)
State just the number; it will be interpreted in µg/mL.

Completed entries (count: 3):
Q) Return MIC (reported value) for this molecule: C=C1C[C@@]23CCC1C[C@H]2[C@](C)(CCC(=O)Nc1c(O)ccc(C(=O)O)c1O)C(=O)[C@@H]1O[C@@H]13 (single isomer, unassigned)
A) 16

Q) Return MIC (reported value) for this molecule: C=C1C[C@]23C=C(Sc4ccc(Br)cc4)C(=O)[C@@](C)(CCC(=O)Nc4c(O)ccc(C(=O)O)c4O)[C@@H]2CC1CC3 (single isomer, unassigned)
A) 16

Q) Return MIC (reported value) for this molecule: C=C1C[C@]23C=C(SCc4ccccc4)C(=O)[C@@](C)(CCC(=O)Nc4c(O)ccc(C(=O)O)c4O)[C@@H]2CC1CC3 (single isomer, unassigned)
A) 16

Then this molecule:
Q) Return MIC (reported value) for this molecule: C[C@]12C[C@@]34C=CC(=O)[C@@](C)(CCC(=O)Nc5c(O)ccc(C(=O)O)c5O)[C@@H]3[C@H](C[C@@H]1C4)O2
A) 2

---

List of MIC values.
Tested on: Staphylococcus aureus
Assay: Inhibition of Staphylococcus aureus FabH A81V/A111T mutant assessed as bacterial growth inhibition measured after 18 hrs by resazurin dye based broth dilution assay

Completed entries (count: 2):
Q) Return MIC (reported value) for this molecule: C[C@]12C[C@@]34C=CC(=O)[C@@](C)(CCC(=O)Nc5c(O)ccc(C(=O)O)c5O)[C@@H]3[C@H](C[C@@H]1C4)O2
A) > 32 µg/mL

Q) Return MIC (reported value) for this molecule: C=C1C[C@@]23CCC1C[C@H]2[C@](C)(CCC(=O)Nc1c(O)ccc(C(=O)O)c1O)C(=O)[C@@H]1O[C@@H]13 (single isomer, unassigned)
A) > 32 µg/mL

Then this molecule:
Q) Return MIC (reported value) for this molecule: C=C1C[C@]23C=C(SCCO)C(=O)[C@@](C)(CCC(=O)Nc4c(O)ccc(C(=O)O)c4O)[C@@H]2CC1CC3 (single isomer, unassigned)
A) > 32 µg/mL
